Measured IC50, listed per entry for reference.
target: UniProtKB P00734
assay-notes: Thrombin-inhibitory activity in plasma samples (ecarin-activated)
Type: biochemical
reported-conditions: citrate plasma, prothrombinase activated by ecarin, fluorogenic thrombin substrate; in some cases means; read-out: IC50 [nM] thrombin inhibition in plasma samples
Be sure to follow the number with its unit.

A selection of reference data follows.
# molecule, IC50
rows = [
    ("COc1cc(C(=O)N2CC3(CC3)NC(=O)C2C)cc2nc(NC(CF)c3cccc(Cl)c3)oc12 (single isomer, unassigned) [Example 34]", "170 nM"),
    ("COc1cc(C(=O)N2CC(C)(CC(C)O)OC[C@H]2C)cc2nc(NC(CF)c3cccc(Cl)c3)oc12 (some centres unmarked)", "14.7 nM"),
    ("COc1cc(C(=O)N2CC(C)OC[C@]23C[C@H](O)C3)cc2nc(NC(CF)c3cccc(Cl)c3)oc12 (some centres unmarked) [Example 21]", "6.2 nM"),
    ("COc1cc(C(=O)N2CC(C)(C)OCC2CO)cc2nc(NC(CF)c3cccc(Cl)c3)oc12 (single isomer, unassigned) [Example 6]", "16.5 nM"),
    ("COc1cc(C(=O)N2CC(C)(C)OC[C@H]2CCO)cc2nc(NC(CF)c3cccc(Cl)c3)oc12 (some centres unmarked)", "4.7 nM"),
]

## Task Any idea what IC50 was measured for COc1cc(C(=O)N2CC(C)(C)OCC2CO)cc2nc(NC(CF)c3cccc(Cl)c3)oc12 (single isomer, unassigned) [Example 5] ?
## Result 4.8 nM

## Task Any idea what IC50 was measured for COc1cc(C(=O)N2CC(C)(CCO)OC[C@H]2C)cc2nc(NC(CF)c3cccc(Cl)c3)oc12 (some centres unmarked) [Example 9] ?
## Result 14.3 nM

## Task Any idea what IC50 was measured for COc1cc(C(=O)N2CC(C)OC[C@H]2C)cc2nc(NC(CF)c3cccc(Cl)c3)oc12 (single isomer, unassigned) [Example 8] ?
## Result 25.3 nM

## Task Any idea what IC50 was measured for CCO[C@@H]1CC(CCO)N(C(=O)c2cc(OC)c3oc(NC(CF)c4cccc(Cl)c4)nc3c2)C1 (single isomer, unassigned) [Example 30] ?
## Result 46 nM

## Task Any idea what IC50 was measured for COc1cc(C(=O)N2CC(C)(C)OCC2CO)cc2nc(NC(CF)c3cccc(Cl)c3)oc12 (centres unmarked) [Example 4] ?
## Result 9.8 nM

## Task Any idea what IC50 was measured for COc1cc(C(=O)N2CC(C)(CCO)OC[C@H]2C)cc2nc(NC(CF)c3cccc(Cl)c3)oc12 (single isomer, unassigned) [Example 11] ?
## Result 5.7 nM

## Task Any idea what IC50 was measured for CCO[C@@H]1CC(CO)N(C(=O)c2cc(OC)c3oc(NC(CF)c4cccc(Cl)c4)nc3c2)C1 (some centres unmarked) [Example 26] ?
## Result 2 nM

## Task Any idea what IC50 was measured for COc1cc(C(=O)N2CC(C)OC[C@]23C[C@H](O)C3)cc2nc(NC(CF)c3cccc(Cl)c3)oc12 (some centres unmarked) [Example 22] ?
## Result 3.8 nM

* * *

Measured IC50, listed per entry for reference.
System: plasma (prothrombin time)
assay-notes: Anticoagulatory activity: prothrombin time (PT) in plasma
reported-conditions: 37° C., 3 minutes incubation, plasma species not given, in some cases means, read-out: IC50 [μM] (concentration of test substance which effects a doubling of the prothrombin time)
Dear colleague, please return just the value in µM, with no unit written.

# compound, endpoint-result
rows = [
    ("COc1cc(C(=O)N2CC(C)(CC(C)O)OC[C@H]2C)cc2nc(NC(CF)c3cccc(Cl)c3)oc12 (stereo partly drawn)", 1.5),
    ("COc1cc(C(=O)N2CCC(O)C(C)C2)cc2nc(NC(CF)c3cccc(Cl)c3)oc12 (single isomer, unassigned)", 1.8),
]

The record that follows has no IC50 shown yet.
## Task Find the measured IC50: item COc1cc(C(=O)N2CC(C)(CCO)OC[C@H]2C)cc2nc(NC(CF)c3cccc(Cl)c3)oc12 (single isomer, unassigned) , target or system plasma (prothrombin time).
## Result 1
